Data credit: PubChem BioAssay AID1628

Assay: decrease of insulin promoter-GFP reporter – imaging, high-content screening, mouse beta cells (AID 1628)
Details: MIN6 insulin promoter GFP reporter, at 5 µM
About 930 (0.49%) of roughly 190,000 compounds were called active.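 How the source made its calls: active means z-score of insulin promoter reporter brightness in nuclei below -3 at 5 µM, with at least 500 cells counted; inconclusive means wells with under 500 cells, flagged as toxic or sparse; inactive means the rest.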 This is one part of the list. Potency and affinity values are given separately.
Log the outcome using a class from active, inactive

Worked set:
COc1ccc(-c2ccc(-c3nnc(Cc4ccc(OC)c(OC)c4)o3)cc2)cc1 : active
CCOc1ccc(-n2c(=O)c3c4c(sc3n(CC(=O)NCC3CCCO3)c2=O)CCC4)cc1 (configuration not stated) : inactive
COc1ccc2cc(C(c3nnnn3C(C)(C)C)N3CCc4ccccc4C3)c(=O)[nH]c2c1 (configuration not stated) : active
CN(CCC#N)C(=O)COC(=O)c1ccc(Cl)c(S(N)(=O)=O)c1 : active

Consider now this further compound.
Input line: Call for entry CCOc1ccc(NC(=S)N2CCC(N(C)CC3CCCO3)CC2)cc1 (configuration not stated) :
Output line: inactive

----------
Experiment: decrease of insulin promoter-GFP reporter – imaging, high-content screening, mouse beta cells (AID 1628)
Details: MIN6 insulin promoter GFP reporter, at 5 µM, hits give low values
The whole screen tested about 190,000 compounds, of which about 930 (0.49%) were called active. The list shows a part of the results. Results with a measured potency or affinity are listed apart.
# if measured z-score < 4: y  # else: n

CCN(CC)c1ccc(/C=C(\C#N)C(=O)c2ccc(Br)cc2)cc1 : y

Consider now this further compound.
Input line: Lab log: compare recorded z-score with 4; is it strictly lower for `CCN(CC)c1ccc(/C=C2/SC(=O)N(C(C)C)C2=O)o1` ?
Output line: n

----------
Assay: decrease of insulin promoter-GFP reporter – imaging, high-content screening, mouse beta cells (AID 1628)
Conditions: MIN6 insulin promoter GFP reporter, at 5 µM, hits give low values
The whole screen tested about 190,000 compounds, of which about 930 (0.49%) were called active. The list shows a part of the results. Potency and affinity values are given separately.
Measured z-score accompanies every entry in the list below.
Quick one: just the number, no unit, thanks!

Recorded z-score, per entry:
CN(C)c1ccc(N/C=C/C(=O)c2ccc(F)cc2)cc1 : -5.01
c1ccc2nc(-c3ccc4c(c3)OCO4)ccc2c1 : -0.48

Input line: Quick one: z-score of `O=C(Nc1nc(-c2ccc3c(c2)OCO3)cs1)c1ccncc1` ?
Output line: -4.14

Input line: Quick one: z-score of `CN1CCS/C1=C/C=C1/SC(=S)N(Cc2ccccc2)C1=O` ?
Output line: 12.1

Input line: Quick one: z-score of `CCN(CC)c1ccc(/C=C/C(=O)c2ccc(Br)cc2)cc1` ?
Output line: 8.04

----------
Assay: decrease of insulin promoter-GFP reporter – imaging, high-content screening, mouse beta cells (AID 1628)
Conditions: MIN6 insulin promoter GFP reporter, at 5 µM
About 930 (0.49%) of roughly 190,000 compounds were called active.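 How the source made its calls: active means z-score of insulin promoter reporter brightness in nuclei below -3 at 5 µM, with at least 500 cells counted; inconclusive means wells with under 500 cells, flagged as toxic or sparse; inactive means the rest.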 The list shows a part of the results. Potency and affinity values are given separately.
Log the outcome using a class from active, inactive

Cc1[nH]ccc(=O)c1OCc1c(Cl)cccc1Cl : active

Input line: Call for entry COc1ccc(-c2nnc3sc(C(C)N4C(=O)c5ccccc5C4=O)nn23)cc1 (stereo not given) :
Output line: inactive

Input line: Call for entry N#CC1CC(c2ccc([N+](=O)[O-])cc2)=NN1c1ccc([N+](=O)[O-])cc1 (stereo not given) :
Output line: inactive

Input line: Call for entry CC1(C#CC[N+]2(C)CCCCC2)CCC2C(O1)c1ccccc1OC2(C)C (stereo not given) :
Output line: inactive

Input line: Call for entry `Cc1noc(C)c1CSCC(=O)N1CCN(c2ccc(F)cc2)CC1` :
Output line: active

----------
Assay: decrease of insulin promoter-GFP reporter – imaging, high-content screening, mouse beta cells (AID 1628)
Details: MIN6 insulin promoter GFP reporter, at 5 µM
Out of some 190,000 compounds screened, about 930 (0.49%) were called active.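 Rule for the calls: active = z-score of insulin promoter reporter brightness in nuclei below -3 at 5 µM, with at least 500 cells counted; inconclusive = wells with under 500 cells, flagged as toxic or sparse; inactive = the rest.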 The list shows a part of the results. Results with a measured potency or affinity are listed apart.
Log the outcome using a class from active, inactive

Input line: Call for entry `COC(=O)c1sc2ccccc2c1-n1cccc1C(=O)C(=O)Nc1ccc(F)cc1` :
Output line: inactive

Input line: Call for entry `COC(=O)c1cc(NC(=O)c2ccccc2)c(=O)oc1/C=C/Nc1ccc(Oc2ccccc2)cc1` :
Output line: inactive

Input line: Call for entry `Cc1ccc(-c2csc(=Nc3cccnc3)n2CCCn2ccnc2)cc1C` :
Output line: active

Input line: Call for entry `Cc1cccc(NC(=O)/C=C/c2ccc([N+](=O)[O-])s2)c1` :
Output line: inactive

Input line: Call for entry `COC(=O)c1ccc(NC(=O)Nc2ccc(F)cc2)cc1` :
Output line: active

Input line: Call for entry `Cc1ccc(S(=O)(=O)c2nc(-c3cccs3)oc2NCCCN(C)C)cc1` :
Output line: active

Input line: Call for entry `COc1ccc(S(=O)(=O)N(C)CC(=O)Nc2ccc3c(c2)OCO3)cc1OC` :
Output line: active

Input line: Call for entry `O=C(Nc1ccc(F)cc1)Nc1cc(OCC(F)(F)F)cc(OCC(F)(F)F)c1` :
Output line: active

Input line: Call for entry `CC(=O)c1c(C)[nH]c(C(=O)OCC(=O)Nc2ccc(Cl)cc2[N+](=O)[O-])c1C` :
Output line: active

Input line: Call for entry `O=[N+]([O-])c1ccc(N/N=C/c2ccc[nH]2)cc1` :
Output line: inactive

----------
Assay: decrease of insulin promoter-GFP reporter – imaging, high-content screening, mouse beta cells (AID 1628)
Details: MIN6 insulin promoter GFP reporter, at 5 µM
Screen size: about 190,000 compounds; about 930 (0.49%) were called active.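 How the source made its calls: active means z-score of insulin promoter reporter brightness in nuclei below -3 at 5 µM, with at least 500 cells counted; inconclusive means wells with under 500 cells, flagged as toxic or sparse; inactive means the rest.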 This is one part of the list. Results with a measured potency or affinity are listed apart.
Log the outcome using a class from active, inactive

O=c1c2ccccc2nc(-c2ccco2)n1/N=C/c1ccco1 : inactive
Cc1nc2ccccn2c1P(=O)(N1CCCCC1)N1CCCCC1 : inactive
COc1cc2cc(C)c3nnc(SCC(=O)Nc4cc(C)on4)n3c2cc1OC : inactive
CCn1c2ccccc2c2nnc(SCC(=O)Nc3cc(C)on3)nc21 : inactive
COc1ccc2c(C(=O)CN(C)C3CCCCC3)c[nH]c2c1 : inactive
COc1ccccc1/C=N/n1c(N)c(S(=O)(=O)c2cccs2)c2nc3ccccc3nc21 : active
CC(C)(C)c1cc(C(=O)NCc2cccnc2)ccn1 : inactive
c1cncc(-c2nc(NCc3ccco3)c3ccccc3n2)c1 : active

Input line: Call for entry `Cn1cc(/C=C2\SC(=S)N(NC(=O)c3ccccc3)C2=O)c2ccccc21` :
Output line: inactive

Input line: Call for entry `CCn1cc(C(=O)O)c(=O)c2cc(F)c(N3CCN(C)CC3)cc21` :
Output line: inactive

----------
Assay: decrease of insulin promoter-GFP reporter – imaging, high-content screening, mouse beta cells (AID 1628)
Settings: MIN6 insulin promoter GFP reporter, at 5 µM
Screen size: about 190,000 compounds; about 930 (0.49%) were called active.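 The calls were made as follows: active = z-score of insulin promoter reporter brightness in nuclei below -3 at 5 µM, with at least 500 cells counted; inconclusive = wells with under 500 cells, flagged as toxic or sparse; inactive = the rest.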 The list shows a part of the results. Results with a measured potency or affinity are listed apart.
Log the outcome using a class from active, inactive

O=[N+]([O-])c1cc(S(=O)(=O)/N=C(/c2ccccc2)N2CCOCC2)ccc1Cl : inactive

Input line: Call for entry `COc1ccc2c(OC)c3ccoc3nc2c1OC` :
Output line: inactive

Input line: Call for entry CCC(c1nnnn1C1CCCC1)N(Cc1cccs1)Cc1cc2cc(C)ccc2[nH]c1=O (stereo unspecified) :
Output line: active

Input line: Call for entry `COc1cc(Cl)c(C)cc1NC(=O)CN(C)Cc1cccc(OC)c1OC` :
Output line: inactive

Input line: Call for entry `COCCCNC(=O)c1c(N)n(/N=C/c2cccnc2)c2nc3ccccc3nc12` :
Output line: active

Input line: Call for entry `Cc1ccc(C(=O)NCCn2c(N)c(C#N)c3nc4ccccc4nc32)cc1` :
Output line: inactive

Input line: Call for entry `O=C(COc1ccc(S(=O)(=O)NCc2ccccc2)cc1Cl)N1CCOCC1` :
Output line: active

----------
Test: decrease of insulin promoter-GFP reporter – imaging, high-content screening, mouse beta cells (AID 1628)
Details: MIN6 insulin promoter GFP reporter, at 5 µM, hits give low values
The campaign covered roughly 190,000 compounds. About 930 (0.49%) were called active. Some of the results follow. Measured potencies and affinities stand elsewhere.
Would you mind classing the entries by z-score? Ranges: A = under 2, B = from 2 up to 4, C = 4 and over

Worked set:
Cc1[nH]c2ccccc2c1/C=N/Nc1ccc([N+](=O)[O-])cc1 : C
Cc1ccc([N+](=O)[O-])cc1NC(=O)c1cccs1 : B
CCOc1ccccc1NC(=O)C1CCN(S(=O)(=O)c2ccc(OC)c(OC)c2)CC1 : A

Input line: Band for the recorded z-score of `Cc1cccc(OCC2=N/C(=C\N(C)C)C(=O)O2)c1` ?
Output line: B

Input line: Band for the recorded z-score of `COc1cc2c(cc1NC(=O)CN1CCN(S(=O)(=O)c3ccccc3F)CC1)oc1ccccc12` ?
Output line: B

Input line: Band for the recorded z-score of `Cc1ccccc1SCc1noc(C(=O)NC(C)C)c1C(=O)O` ?
Output line: B

Input line: Band for the recorded z-score of Cc1ccc(N2C(=O)C3C(C(=O)c4ccccc4)=NN(c4ccccc4)C3C2=O)cc1 (stereo not drawn) ?
Output line: B

Input line: Band for the recorded z-score of `CCOCCCNC(=O)c1ccc(N2CCCC2)c(NS(=O)(=O)c2ccc(C)cc2)c1` ?
Output line: B

Input line: Band for the recorded z-score of `C=CCN1C=CC(=CC=C(C#N)C#N)C=C1` ?
Output line: B

Input line: Band for the recorded z-score of `CC(C)(C)C(=O)c1sc2nc(-c3cccs3)cc(C(F)(F)F)c2c1N` ?
Output line: C
